tested on: L1210 leukemia ip in BDF1 mice, survival T/C; experiment: NCI In Vivo Anticancer Drug Screen. Data for tumor model L1210 Leukemia (intraperitoneal) in B6D2F1 (BDF1) mice; details: endpoint: mean survival time; dose: 100.0 mg/kg/injection; schedule: Q04DX002 (ip); vehicle: saline with Tween-80; higher = longer survival
Toxic doses and inconclusive results are not listed.
This section presents compounds with their documented T/C values.
measure-name: T/C

compound	reported
CC1CCOC(C)(CCl)O1 (stereo not drawn)	98 % of control
CCS(=O)(=O)N1CCCC(C)C1 (stereo not drawn)	105 % of control
O=C1OC(/C=C/c2ccccc2)=NC/1=C\c1cc(Br)ccc1O	104 % of control
c1ccc2c(CCNC3=NCCO3)c[nH]c2c1	91 % of control
O=C1OC(/C=C/c2ccccc2)=NC/1=C\c1ccc(O)cc1	104 % of control
CCOc1nc(N)nc(-c2ccc(OC)cc2)c1Br	94 % of control
CC(O)C(=O)SCc1ccccc1 (stereo not drawn)	95 % of control
Nc1ncc(CSCc2ccccc2)c(-c2ccccc2)n1	100 % of control
C[C@]12CC[C@@H](O)C[C@H]1CC[C@@H]1[C@@H]2CC[C@]2(C)C(=O)CC[C@@H]12	100 % of control
Cc1ccc(/C(C#N)=C/C2CCC(N(C)C)CC2)cc1 (stereo not drawn)	87 % of control
CCOC(=O)C(C)C1(c2ccccc2)OC(=O)c2ccccc21 (stereo not drawn)	108 % of control
O=C(CCCCCC(=O)NO)NO	93 % of control
COCCOCC(=O)O	101 % of control

----------
Overview of recorded T/C for various compounds
test system: L1210 leukemia ip in BDF1 mice, survival T/C; assay: NCI In Vivo Anticancer Drug Screen. Data for tumor model L1210 Leukemia (intraperitoneal) in B6D2F1 (BDF1) mice; conditions: endpoint: mean survival time; dose: 100.0 mg/kg/injection; schedule: Q04DX003 (ip); vehicle: saline with Tween-80; higher = longer survival
Toxic doses and inconclusive results are not listed.

compound	target-or-test-system	T/C
CSc1ccc(NC(=O)C(O)C(O)C(O)C(O)CO)cc1 (stereo not drawn)	L1210 leukemia ip in BDF1 mice, survival T/C	89 % of control
Cn1c(C[N+](C)(C)C)cc2ccccc21	L1210 leukemia ip in BDF1 mice, survival T/C	104 % of control
CNc1cc([N+](=O)[O-])ccc1OCc1ccccc1	L1210 leukemia ip in BDF1 mice, survival T/C	89 % of control
Cc1sc2c(c1-c1ccccc1)C(=O)CCCN2	L1210 leukemia ip in BDF1 mice, survival T/C	94 % of control
N#CC1=C(N)CCCC1	L1210 leukemia ip in BDF1 mice, survival T/C	104 % of control
C#CC1(OC(C)=O)CCCCC1	L1210 leukemia ip in BDF1 mice, survival T/C	105 % of control
COC(=O)CCC(C(=O)CN1C(=O)c2ccccc2C1=O)N1C(=O)c2ccccc2C1=O (stereo not drawn)	L1210 leukemia ip in BDF1 mice, survival T/C	96 % of control
CCCCCCCC(=O)Nc1ccc(C)c(C)c1	L1210 leukemia ip in BDF1 mice, survival T/C	93 % of control
CC(C)CC(NC(=O)CNC(=O)CNC(=O)OCc1ccccc1)C(=O)O (stereo not drawn)	L1210 leukemia ip in BDF1 mice, survival T/C	100 % of control
O=C(O)C1C2CC3OC(=O)C1C3C2O (stereo not drawn)	L1210 leukemia ip in BDF1 mice, survival T/C	96 % of control
C/C(=C\COc1ccc2ccc(=O)oc2c1)C1=CC(=O)C(C)(C)O1	L1210 leukemia ip in BDF1 mice, survival T/C	96 % of control
CC(=O)C(Cl)C(O)(C(F)(F)F)C(F)(F)F (stereo not drawn)	L1210 leukemia ip in BDF1 mice, survival T/C	95 % of control
CC(=O)Nc1ccc(OC(=O)Nc2cccc(Cl)c2C)cc1	L1210 leukemia ip in BDF1 mice, survival T/C	93 % of control
